- Test Name: Conversion of Hipp-Glu by purified HCPB mutants, 30 minutes, HPLC (Example 17)
- Type: biochemical
- Study Conditions: enzyme 25 μg/ml; 0.5 mM substrate; 30 minutes at 37° C.
- Procedure: […] Samples were incubated for 30 minutes at 37° C. The reactions were terminated by the addition of 500 μl of 40% methanol, 60% distilled water, 0.2% trifluoro acetic acid and the amount of hippuric acid generated was quantitated by HPLC as described in Example 6 but using a mobile phase of 20% methanol, 80% 50 mM phosphate buffer, pH 6.5. Hippuric acid was detected at 230 nm. […]
Parameter: Hipp-Glu (% conversion) (%)

Molecule	Parameter	Unit Abbreviation	Numeric Result
[G251N,D253R]: HCPB mutant with G251N and D253R, (His)6-c-myc tag (protein, UniProt P15086 111-417, looked up, variant G251N D253R, (His)6-c-myc tag) Carboxypeptidase B: ATGHSYEKYNKWETIEAWTQQVATENPALISRSVIGTTFEGRAIYLLKVGKAGQNKPAIFMDCGFHAREWISPAFCQWFVREAVRTYGREIQVTELLDKLDFYVLPVLNIDGYIYTWTKSRFWRKTRSTHTGSSCIGTDPNRNFDAGWCEIGASRNPCDETYCGPAAESEKETKALADFIRNKLSSIKAYLTIHSYSQMMIYPYSYAYKLGENNAELNALAKATVKELASLHGTKYTYGPGATTIYPAAGNSRDWAYDQGIRYSFTFELRDTGRYGFLLPESQIRATCEETFLAIKYVASYVLEHLY	Hipp-Glu (% conversion)	%	57
